The reported numbers originate from PubChem BioAssay (Tox21).

experiment: qHTS assay to identify small molecule HDAC inhibitors (AID 1259364); details: HCT-116 HDAC-Glo I/II luminescence, 2 h; series mostly up to 92.4 µM;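 note: wild-type HCT-116 cells with endogenous class I/II HDAC activity; top concentration of the series differs between compounds; nearly all actives have a fitted effect of over 45% in size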
Records with an inconclusive call do not appear. The source made the active and inactive calls. Calls come from the whole dose curve; as a rule, active = well fitted inhibition curve with a large enough effect in the repeat runs; inconclusive = weak or mixed curves; inactive = flat fitted curve, though single readings scatter.
propertyName: outcome

Previously resolved entries follow.
INSERT INTO assay_data (compound, propertyname, observedvalue) VALUES
  ('N#Cc1c(Cl)cccc1Cl', 'outcome', 'inactive'),
  ('Cc1ccccc1CO[C@@H]1C[C@@]2(C(C)C)CC[C@]1(C)O2', 'outcome', 'inactive'),
  ('CSc1ccc(C(=O)C(C)(C)N2CCOCC2)cc1', 'outcome', 'inactive'),
  ('CC(CC(C#N)(c1ccccc1)c1ccccc1)N(C)C (centres undefined)', 'outcome', 'inactive');

-- ask outcome for CC1(C)COP(Oc2ccccc2)OC1 ?
-- reply inactive
